Entry source: patent US7498343B2

System: Mycobacterium tuberculosis (strain H37RV)
Assay: In-vitro method for testing compounds against M. tuberculosis (resazurin growth inhibition, MIC)
Type: cell-based
Conditions: MIC data representing IC90's, 7 days incubation, resazurin fluorescence
Observation Type: MIC (microgram/ml)
Number in microgram/ml, nothing else.

Just so you know, measured MIC for COc1nc2ccc(Br)cc2cc1C(c1ccccc1)C(O)(CCN(C)C)c1cccc(F)c1F (stereo not shown) [Compound 114] came out at 43.01

Just so you know, measured MIC for COc1nc2ccc(Br)cc2cc1C(c1ccccc1)C(O)(CCCN(C)C)c1ccccc1 (single isomer, unassigned) [Compound 64] came out at 6.54

Just so you know, measured MIC for COc1nc2ccc(Br)cc2cc1C(c1ccccc1)C(O)(CCN1CCCC1)c1ccc2ccccc2c1 (single isomer, unassigned) [Compound 144] came out at 52.46

Just so you know, measured MIC for COc1nc2ccc(Br)cc2cc1C(c1ccccc1)C(O)(CCN(C)C)c1cc(F)ccc1F (stereo not shown) [Compound 110] came out at 0.34
